CONDITION INFO: buffer; pH 7.4; 200.0 µM
Please provide measured solubility kinetic for the entries that follow.
Your answer should be a plain number; it is taken to be in µg/mL.

Input: Form field: reported solubility kinetic of `COc1ccc(Nc2nccc(-c3ccc([N+](=O)[O-])cc3)n2)cc1`
Output: 0.4

Input: Which measured solubility kinetic value corresponds to `COc1cccc(Oc2ccc(C(F)(F)F)cc2NC(=O)CN2C(=O)NC3(CCCC3)C2=O)c1` ?
Output: 2.7

Input: Endpoint output: solubility kinetic of `CSc1cccc(NC(=O)C2(S(=O)(=O)c3ccc(C)cc3)CC2)c1` . Value?
Output: 19.9

Input: Looking for the measured solubility kinetic of `COC(=O)c1ccc(-n2c(C)cc(C(=O)COC(=O)C3=COCCO3)c2C)cc1` , can you help?
Output: 3.7

Input: Item `Cc1ccc2c(c1)CCCN2C(=O)c1cc(C)c(C)s1` has what recorded solubility kinetic?
Output: 3.9

Input: Param item = `Cc1cccc(-c2nc(N)nc(N)n2)c1` ; retrieve measured solubility kinetic.
Output: 28

Input: Which solubility kinetic is listed for CC(c1ccccc1)C1CC(=O)N(c2ccc([N+](=O)[O-])cc2)C1=O (centres undefined) ?
Output: 32.5

Input: Give the measured solubility kinetic of `CCN(CC)C(=S)Oc1ccc(Cl)cc1Cl` .
Output: 0.9

Input: Give the measured solubility kinetic of `COc1cc2c(cc1OC)C(CCc1ccccc1)=NCC2` .
Output: 42.6

Input: Recorded solubility kinetic of `COc1ccccc1/C=C/CN1CCCCC1` , please.
Output: 25.8

Input: Quick one: solubility kinetic for `CN(CC(=O)Nc1ccccc1F)Cc1cccs1` ?
Output: 30.1

Input: So what does the record say about solubility kinetic for `N/C(=N\O)c1ccc(Cl)cc1Cl` ?
Output: 30

Input: Suppose we examine the compound `Cc1cc([N+](=O)[O-])ccc1NC(=O)c1csc(C)c1C` ; what solubility kinetic value has been reported?
Output: 1.1

Input: Fill in: solubility kinetic of `COc1ccccc1NC(=O)NCCN1CCNC1=O` is ___
Output: 39.7

Input: Can you share its solubility kinetic? I mean this compound: `NC(=O)c1ccc(NC(=O)CCN2C(=O)c3ccccc3C2=O)cc1`
Output: 10.6

Input: Can you look up the measured solubility kinetic of `CCc1nc(-c2ccccc2)c2ccccn12.O=C(O)C(=O)O` for me?
Output: 38.1

Input: Give its solubility kinetic value. Item: `O=C(COc1ccccc1[N+](=O)[O-])Nc1ccc2oc(=O)ccc2c1`
Output: 0.5

---

CONDITION INFO: buffer; pH 7.4; 200.0 µM
QUANTITY MEASURED: solubility kinetic (µg/mL)
Write the answer as a number in µg/mL, unit excluded.

Input: Value lookup for solubility kinetic; key = `CN(Cc1ccc(F)cc1)C(=O)c1sccc1-c1ccccc1`
Output: 21.4

Input: I would be grateful if you could share the reported solubility kinetic for CCOc1ccc(S(=O)(=O)NC2CCCCC2C)cc1 (stereo not given) .
Output: 37.5

Input: Dear colleague, I am looking for the recorded solubility kinetic of the following molecule: `c1ccc(CN2CCN(Cc3ccc4ccccc4c3)CC2)cc1`
Output: 23.4

Input: Entry `CCN(CC)C(=O)CN1C(=O)/C(=C/c2ccccc2)SC1=S` : reported solubility kinetic = ?
Output: 2.5

Input: Which solubility kinetic is listed for `COc1cc2[nH]c(C(=O)NCCc3ccccc3)cc2c(OC)c1OC` ?
Output: 20.3

Input: Bench note: what solubility kinetic did `COc1ccc(OC)c(NC(=O)COC(=O)CCCN=C2NS(=O)(=O)c3ccccc32)c1` show?
Output: 6.4

---

CONDITION INFO: buffer; pH 7.4; 200.0 µM
Is solubility kinetic at least 7 µg/mL? Then Satisfied. If not, Not satisfied.

Input: Check this molecule for solubility kinetic at or above 7 µg/mL: `Br.Cn1c(=N)n(CC(=O)c2ccccc2)c2ccccc21`
Output: Satisfied

Input: Determine whether this molecule has solubility kinetic no lower than 7 µg/mL: `CSc1cccc(NC(=O)COC(=O)c2ccccn2)c1`
Output: Satisfied

Input: Is solubility kinetic for CC(C)N1CC(C(=O)Nc2ccc(Cl)c(Cl)c2)CC1=O (centres undefined) at or above 7 µg/mL?
Output: Satisfied

Input: Does the molecule `O=C1NC(=O)/C(=C/c2ccccn2)S1` have recorded solubility kinetic that is 7 µg/mL or more?
Output: Satisfied

Input: Say whether `O=C(Cc1ccccc1)NCC(=O)N1CCCC1` shows solubility kinetic of 7 µg/mL or more.
Output: Satisfied

Input: Check this molecule for solubility kinetic at or above 7 µg/mL: `C=CCNC(=S)N1CCC(C(N)=O)CC1`
Output: Satisfied

Input: # bool: solubility kinetic of Cc1ccc(S(=O)(=O)N2CCCC(C)C2)cc1 (centres undefined) >= 7 µg/mL
Output: Satisfied

Input: # check: solubility kinetic of `COc1ccc(S(=O)(=O)NCc2cccnc2)c2ccccc12` is greater than or equal to 7 µg/mL
Output: Satisfied

Input: Could you verify whether the entry COc1ccc(CC(C)NCCc2ccc(OC)c(OC)c2)cc1 (centres undefined) shows solubility kinetic of no less than 7 µg/mL?
Output: Satisfied

Input: Check if solubility kinetic >= 7 µg/mL (inclusive). Item: `Cc1ccc(-c2nc(N3CCN(C)CC3)c3ccccc3n2)cc1.Cl`
Output: Satisfied

Input: Check the entry C=CCN1C(=O)C(C)NC1=S (centres undefined) : does solubility kinetic equal or exceed 7 µg/mL?
Output: Satisfied

Input: Can `O=C(NCc1ccccc1)NC12CC3CC(CC(C3)C1)C2` be said to have solubility kinetic at or above 7 µg/mL?
Output: Not satisfied

Input: Entry CC(CCc1ccccc1)NC(C)C(O)c1ccc(O)cc1.Cl (centres undefined) : is its solubility kinetic no less than 7 µg/mL?
Output: Satisfied

Input: Could you tell me if the measured solubility kinetic of `COc1ccc(-c2cc(-c3ccc(O)cc3)nc(N)c2C#N)cc1OC` reaches 7 µg/mL or more?
Output: Not satisfied

Input: Answer whether solubility kinetic of `O=C(Cc1c(F)cccc1Cl)OCC(=O)N1CCN(c2ccccc2)CC1` is greater than or equal to 7 µg/mL.
Output: Satisfied

Input: Does the reported solubility kinetic for `COc1ccc(N2CCN(C(=O)COCC(=O)O)CC2)cc1` fall at or above the 7 µg/mL mark?
Output: Satisfied

Input: Reported solubility kinetic at or above 7 µg/mL? `CN(C)CCCN=Cc1c(O)n(Cc2ccco2)c(=O)[nH]c1=O`
Output: Satisfied

Input: API: above_or_equal(metric=solubility kinetic, cutoff=7 µg/mL) for item `O=[N+]([O-])c1cc2c(cc1CN1CCN(c3ccccc3F)CC1)OCO2`
Output: Not satisfied

---

Kindly state solubility kinetic for each of the entries shown.
CONDITION INFO: buffer; pH 7.4; 200.0 µM

Input: Suppose we examine the molecule `Cc1cc(C)nc(S/C=C/C(=O)c2ccc(F)cc2)n1` ; what solubility kinetic value has been reported?
Output: < 0.3 µg/mL

Input: Sample `CN(C)CCCNC(=O)N1c2ccccc2C=Cc2ccccc21.Cl` — what was its solubility kinetic?
Output: > 53.7 µg/mL

Input: Given the molecule `O=c1[nH]c2cc3c(cc2cc1CN(Cc1cccnc1)C(=S)NCc1ccco1)OCCO3` , what is its reported solubility kinetic?
Output: < 0.2 µg/mL

Input: Look up solubility kinetic for this molecule: `Cc1cc(C)n2nc(SCC(=O)N3CCC(C(=O)O)CC3)nc2n1`
Output: > 52.4 µg/mL

Input: For the molecule `N#C/C(=N\O)c1nc2ccccc2s1` , what solubility kinetic is on record?
Output: > 30.5 µg/mL

Input: May I ask what solubility kinetic has been recorded for `Cc1ccccc1C(=O)Nc1ccc(S(=O)(=O)N2CCOCC2)cc1` ?
Output: > 54.1 µg/mL

Input: Entry under review: `CCCN(CCC)Cc1cc(=O)oc2cc3c(cc12)CCC3` . Reported solubility kinetic?
Output: < 0.6 µg/mL

Input: Bench note: what solubility kinetic did N#CCN1CCCC(C(N)=O)C1 (centres undefined) show?
Output: 19.6 µg/mL

Input: So what's the measured solubility kinetic for this one? `Cn1c(=O)c2c(ncn2CCC(=O)N/N=C/c2ccccc2)n(C)c1=O`
Output: > 53.2 µg/mL

Input: I am curious: what solubility kinetic value has been reported for `O=S(=O)(Nc1ccc(C(F)(F)F)cn1)c1ccccc1` ?
Output: 45.3 µg/mL

Input: State the recorded solubility kinetic for this entry: Cc1ccc(Cl)cc1NC(C#N)c1ccccc1 (centres undefined)
Output: 6.5 µg/mL

Input: Reported solubility kinetic for `O=c1[nH]c(/C=C/c2cccc([N+](=O)[O-])c2)c([N+](=O)[O-])c(=O)[nH]1` : what is it?
Output: 34.8 µg/mL

Input: Would you kindly share the measured solubility kinetic for `NC(=NCCc1ccccc1)NS(=O)(=O)c1ccccc1F` ?
Output: > 48.2 µg/mL

Input: Which solubility kinetic is reported for this molecule? `COc1ccccc1OCC#CCn1ccnc1.O=C(O)C(=O)O`
Output: > 49.8 µg/mL

Input: State the recorded solubility kinetic for this entry: `CCOc1cccc(C(=O)Nc2cccc(NC(=O)c3ccco3)c2)c1`
Output: 3.9 µg/mL

Input: Consider the molecule `Cc1nc2ccccc2cc1C(=O)NCc1ccccc1` and give its measured solubility kinetic.
Output: > 41.5 µg/mL

Input: Field request: solubility kinetic | item: `O=C(CCl)N(CCCNC(=O)C(F)(F)F)c1ccc([N+](=O)[O-])cc1`
Output: > 55.2 µg/mL

Input: Looking for the measured solubility kinetic of `COc1ccccc1OCCCCN1CCC(C)CC1` , can you help?
Output: 30.7 µg/mL

Input: Any idea what its solubility kinetic is? The molecule is `O=C(CCNC(=O)c1ccc(Br)cc1)NCc1ccco1`
Output: > 52.7 µg/mL
